Please respond with reported koff for every item in the list.
# SYSTEM: T1, sIL-6R (soluble IL-6 receptor; SBH Sciences) (human, UniProt P08887 20-365)
# T1 construct: also called human IL-6R
# T1 sequence: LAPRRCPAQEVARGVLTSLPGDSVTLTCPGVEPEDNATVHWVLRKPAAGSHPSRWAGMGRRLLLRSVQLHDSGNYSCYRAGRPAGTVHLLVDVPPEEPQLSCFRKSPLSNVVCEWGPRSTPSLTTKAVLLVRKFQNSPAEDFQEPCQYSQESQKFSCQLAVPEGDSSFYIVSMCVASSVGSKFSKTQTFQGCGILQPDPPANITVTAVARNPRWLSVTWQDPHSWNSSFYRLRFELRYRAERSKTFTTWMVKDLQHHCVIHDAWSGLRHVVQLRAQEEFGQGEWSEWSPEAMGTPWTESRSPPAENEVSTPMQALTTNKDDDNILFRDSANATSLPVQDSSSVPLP
# PROTOCOL: SPR (BIAcore 3000), antibody on chip, sIL-6R analyte, 25 C
Respond with the bare value in s⁻¹.

Give the measured koff for Tocilizumab (antibody, human IgG1, kappa, V domains shown, also called 25; 25(control)) VH: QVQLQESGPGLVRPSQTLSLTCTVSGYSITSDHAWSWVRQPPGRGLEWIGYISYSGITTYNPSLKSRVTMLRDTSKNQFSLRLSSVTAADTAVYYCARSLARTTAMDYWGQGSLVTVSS VL: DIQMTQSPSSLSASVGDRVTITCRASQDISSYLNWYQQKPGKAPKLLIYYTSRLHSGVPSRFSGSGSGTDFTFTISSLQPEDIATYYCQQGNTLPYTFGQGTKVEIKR
0.00035

Give the measured koff for 202# (antibody, human IgG1, kappa, V domains shown) VH: QVQLQESGPGLVRPSQTLSLTCTVSGYSITSDHAWSWVRQPPGRGLEWIGYISYSGITTYNPSLKSRVTMLRDTSKNQFSLRLSSVTAADTAVYYCARVLARITAMDYWGQGSLVTVSS VL: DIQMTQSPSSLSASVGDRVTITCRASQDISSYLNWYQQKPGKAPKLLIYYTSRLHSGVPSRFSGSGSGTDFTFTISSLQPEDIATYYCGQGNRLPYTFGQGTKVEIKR
3.17e-06

Give the measured koff for 249# (antibody, human IgG1, kappa, V domains shown) VH: QVQLQESGPGLVRPSQTLSLTCTVSGYSITSDHAWSWVRQPPGRGLEWIGYISYSGMTTYNPSLKSRVTMLRDTSKNQFSLRLSSVTAADTAVYYCARCLARATAMDYWGQGSLVTVSS VL: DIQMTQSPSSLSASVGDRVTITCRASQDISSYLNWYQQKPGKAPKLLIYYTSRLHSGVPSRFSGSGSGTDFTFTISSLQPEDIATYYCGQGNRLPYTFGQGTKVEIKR
3.39e-05
